- Tested on: ITK mediated IL-2 release in Jurkat cells
- test name: ITK IL-2 release assay in CD3/CD28-stimulated Jurkat cells
- Assay type: cell-based
- condition details: Homo sapiens, CD3/CD28 Dynabeads stimulation, overnight, read-out: IL-2 Production Inhibition IC50
- Protocol: This assay was based on the ability of a compound to inhibit ITK mediated IL-2 release. Jurkat cells were placed in wells of a 96-well plate at 500,000 per well in 120 μL medium (same as above). Compounds were added as 15 μL per well of 10× working stock solutions in medium with 1% DMSO (or medium with 1% DMSO for Controls) and placed in a 37° C. incubator for 2 hours. […] To determine cell viability, to the remaining well Contents 50 μL of CellTiter-Glo reagent was added and luminescence determined. […]
Listed below: IC50 values for each entry.

Below, each entry is followed by its recorded IC50 result.
Give the measured IC50 of C=CC(=O)N1CC(Nc2cc(-c3ccnc(NC)n3)c[nH]c2=O)C1 [Example 10] . ≤ 1000 nM

Try the compound C=CC(=O)N1CC(Nc2cc(-c3cncc(NC)n3)c[nH]c2=O)C1 [Example 11] ≤ 1000 nM

***
Return reported IC50; argument: C=CC(=O)N1CC(Nc2cc(-c3ccnc(NC)c3)c[nH]c2=O)C1 [Example 9] ≤ 1000 nM

---

Structures can show the parent of a compound that is named as a salt.
A set of compounds tested on ITK (Homo sapiens), with measured IC50:

Which IC50 value is on record for CNc1cc(-c2c[nH]c(=O)c(NC3CN(C(=O)/C=C/CCOc4ccccc4)C3)c2)ccn1 ? ≤ 1000 nM

And what about the compound CNc1cc(-c2c[nH]c(=O)c(NC3CN(C(=O)/C=C/Cc4ccccc4)C3)c2)ccn1 ? > 1000 nM

Input C=CC(=O)N1CC(Nc2cc(-c3cncc(NC)n3)c[nH]c2=O)C1 ≤ 1000 nM

Now give it for Cc1cc(NC(=O)c2cc(-c3c[nH]c(=O)c(NC4CN(C(=O)CCl)C4)c3)ccn2)ccc1C(C)C [Example 17, formate] too. > 1000 nM

---

Target or system ITK (Homo sapiens, UniProt Q08881): recorded IC50 listed per item.

Previously resolved entries follow.
Report IC50 for O=C(CCl)N1CC(Nc2cc(-c3ccncc3)c[nH]c2=O)C1 please. ≤ 1000 nM

// query: C=CC(=O)N1CC(Nc2cc(-c3cncc(OC)n3)c[nH]c2=O)C1 ≤ 1000 nM

And C=CC(=O)N1CC(Nc2cc(-c3ccnc(C)c3)c[nH]c2=O)C1 ? ≤ 1000 nM

---
Dear colleague, I am looking for the recorded IC50 of the following compound: C=CC(=O)N1CC[C@@H](Nc2cc(-c3ccncc3)c[nH]c2=O)C1 > 1000 nM

Entry to check: O=C(CCl)N1CCC[C@@H](Nc2cc(-c3ccncc3)c[nH]c2=O)C1 ≤ 1000 nM

Query CNC/C=C/C(=O)N1CC(Nc2cc(-c3ccncc3)c[nH]c2=O)C1 next ≤ 1000 nM
